- Tested on: johnsongrass (Sorghum halepense)
- method: Test D pre-/postemergence plant response
- Type: in vivo
- experimental.parameters: Postemergence, 16 g ai/ha; scale 0 to 100 (0 no effect, 100 complete control)
readout.label: Johnsongrass plant response rating
Enter the number alone.

compound: Cc1cc(-c2ccccc2Oc2ncc(Cl)cn2)on1
tested.on: johnsongrass (Sorghum halepense)
Johnsongrass plant response rating: 0
--
compound: Fc1cccc(Oc2ncc(Br)cn2)c1-c1cc(C(F)F)on1
tested.on: johnsongrass (Sorghum halepense)
Johnsongrass plant response rating: 5
--
compound: FC(Cl)c1cc(-c2ccccc2Oc2ncc(Cl)cn2)no1 (stereo not shown)
tested.on: johnsongrass (Sorghum halepense)
Johnsongrass plant response rating: 10

**Q:** Form entry - test system: johnsongrass (Sorghum halepense); read-out: Johnsongrass plant response rating; compound: Cc1cc(-c2ccccc2Oc2ncc(Cl)cn2)no1
**A:** 0

* * *

- Tested on: oilseed rape (Brassica napus)
- method: Test D pre-/postemergence plant response
- Format: in vivo
- experimental.parameters: Postemergence, 16 g ai/ha
readout.label: Plant response rating (scale 0 to 100), Oilseed Rape
Output spec: single numeric token, no unit.

Recorded results for 5 molecules are shown here.
given.smiles: Clc1cnc(Oc2ccccc2-c2cc(Cl)sn2)nc1
reported.result: 0

given.smiles: FC(Cl)(Cl)c1cc(-c2ccccc2Oc2ncc(Cl)cn2)no1
reported.result: 30

given.smiles: FCc1cc(-c2ccccc2Oc2ncc(Cl)cn2)on1
reported.result: 0

given.smiles: CC(F)(F)c1cc(-c2ccccc2Oc2ncc(Cl)cn2)no1
reported.result: 10

given.smiles: Clc1cnc(Oc2ccccc2-c2ccon2)nc1
reported.result: 0

Shift focus to the following entry.
**Q:** So what's the measured Plant response rating (scale 0 to 100), Oilseed Rape for this one? N#Cc1cccc(Oc2ncc(Cl)cn2)c1-c1cc(C(F)F)on1
**A:** 5

* * *

Each record here notes measured Plant response rating, Galium.
- Test system: galium (catchweed bedstraw, Galium aparine)
- method: Test D pre-/postemergence plant response
- Assay type: in vivo
- experimental.parameters: Preemergence; 16 g ai/ha; scale 0 to 100 (0 no effect, 100 complete control)
The answer should be a number; do not append a unit.

given.smiles: FC(F)(F)c1cc(-c2ccccc2Oc2ncc(Cl)cn2)ncn1
reported.result: 50

**Q:** What Plant response rating, Galium appears in the records for this compound with galium (catchweed bedstraw, Galium aparine)? Cc1cc(-c2c(F)cccc2Oc2ncc(Cl)cn2)on1
**A:** 40

**Q:** Lookup: Plant response rating, Galium / galium (catchweed bedstraw, Galium aparine) / Cc1cc(-c2ccccc2Oc2ncc(Cl)cn2)on1
**A:** 0

**Q:** Which Plant response rating, Galium is reported with galium (catchweed bedstraw, Galium aparine) for this entry: N#Cc1cccc(Oc2ncc(Cl)cn2)c1-c1cc(C(F)(F)F)on1 ?
**A:** 80

**Q:** Provide value of Plant response rating, Galium for this record tested with galium (catchweed bedstraw, Galium aparine): Cc1cc(-c2ccccc2Oc2ncc(Cl)cn2)no1
**A:** 98

**Q:** Which measured Plant response rating, Galium belongs to Fc1cccc(Oc2ncc(Br)cn2)c1-c1cc(C(F)F)on1 , tested on galium (catchweed bedstraw, Galium aparine)?
**A:** 60

* * *

- Tested on: wheat (Triticum aestivum)
- method: Test B pre-/postemergence plant response
- Assay type: in vivo
- experimental.parameters: Postemergence, 1000 g ai/ha; 0 to 100 scale (0 no effect, 100 complete control)
We begin with a simple list: items and their reported Plant response rating, Wheat.

compound: Clc1cnc(Oc2ccccc2-c2ncns2)nc1 [Compound 172]
Plant response rating, Wheat: 0

**Q:** Plant response rating, Wheat lookup needed for Clc1cnc(Oc2ccccc2-c2cncs2)nc1 [Compound 9] , thanks.
**A:** 10

**Q:** Would you mind telling me what Plant response rating, Wheat value was observed for CCOC(=O)c1cc(-c2ccccc2Oc2ncc(Cl)cn2)no1 [Compound 148] ?
**A:** 0

**Q:** Entry Fc1cnc(Oc2ccccc2-c2cc(Cl)sn2)nc1 [Compound 193] : reported Plant response rating, Wheat = ?
**A:** 20

**Q:** // query Plant response rating, Wheat value for entry Cc1cc(-c2ccccc2Oc2ncc(Cl)cn2)sn1 [Compound 171]
**A:** 30
